Origin of values: PubChem BioAssay

Test: inhibitors of E-selectin induction by TNFa, primary screen, imaging, HUVEC, immunofluorescence, MLSMR starter and 10KST1 sets (AID 487);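 further: 100% = median nuclei count of all wells on the same plate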
Details: HUVEC TNFalpha-induced E-selectin immunofluorescence imaging, at 2 µM; measured here: cell number, toxicity
Each entry below carries its recorded nuclei count.
Answer format: numeric, % implied, no suffix.

Sample records with nuclei count:
>>> print(df.to_string())
                                   compound  value_units  endpoint_result
0  CCOC(=O)C1=C(CSc2nc(C)cc(C)c2C#N)OC(N)=C(C#N)C1c1cccs1 (configuration not stated)            %               95
1         COc1ccc(NCc2cc3ccccc3[nH]c2=O)cc1            %               90
2                       N/C(CCN1CCOCC1)=N/O            %              147
3      O=C(NCCOCCOCCNC(=O)c1cccnc1)c1cccnc1            %              151

Entry under review: "Cc1c(CCC#N)c(N2CCCCC2)n2c(nc3ccccc32)c1C#N" . Reported nuclei count?
155

How about this compound: "COc1cccc(-c2nc(NC(C)(C)C)c3ccccc3n2)c1O"
141

How about this compound: "O=C(O)c1cnn2c(C(F)(F)F)cc(-c3ccco3)nc12"
96.3

How about this compound: "CCOC(=O)CC(=O)CSc1[nH]c(=O)cc(C)c1C#N"
132

How about this compound: "N/C(CCN1CCCCC1)=N/O"
169

How about this compound: "CC(NC(=O)NCCCC(=O)O)(C(F)(F)F)C(F)(F)F"
122

How about this compound: "O=C(O)c1c[nH]c2ccc(S(=O)(=O)N3CCOCC3)cc12"
144

How about this compound: "CN(C)CCCOC(=O)C1c2ccccc2Oc2ccccc21"
169
